Hello, the source for this data is ChEMBL document CHEMBL1158683, in case you need it.

Tested on: Lu1
procedure_text: Cytotoxicity against human Lu1 cells
Format: functional
assay_conditions: read-out: ED50 (the source's name)
reported_endpoint: log10(EC50) (log10 of the value in µg/mL)

>>> recorded_measurement("C=C1C(=O)O[C@@H]2[C@@H]1[C@H]1O[C@H]1[C@H](C)[C@@](O)(C(=O)/C=C/C)[C@H]2OC(=O)/C(C)=C\\C")
-0.30
>>> recorded_measurement("C=C1C(=O)O[C@@H]2[C@@H]1CC[C@H](C)[C@@](O)(C(=O)/C=C/C)[C@H]2OC(=O)/C(C)=C\\C")
-0.40
>>> recorded_measurement("C=C1C(=O)O[C@@H]2[C@@H]1[C@@H](O)C[C@H](C)[C@@](O)(C(=O)/C=C/C)[C@H]2OC(=O)/C(C)=C\\C")
0.36
>>> recorded_measurement("C=C1C(=O)O[C@@H]2[C@@H]1C[C@@H](O)[C@H](C)[C@@](O)(C(=O)CC(C)O)[C@H]2OC(=O)C(C)CC (stereo not given in full)")
1.23
>>> recorded_measurement("C=C1C(=O)O[C@@H]2[C@@H]1CC(=O)[C@H](C)[C@@](O)(C(=O)CC(C)OC)[C@H]2OC(=O)C(C)CC (stereo not given in full)")
0.64
>>> recorded_measurement("C=C1C(=O)O[C@@H]2[C@@H]1CC(=O)[C@H](C)[C@@](O)(C(=O)/C=C/C)[C@H]2OC(=O)C(C)CC (stereo not given in full)")
0.36
>>> recorded_measurement("C=C1C(=O)O[C@@H]2[C@@H]1C[C@@H](O)[C@H](C)[C@@](O)(C(=O)/C=C/C)[C@H]2OC(=O)/C(C)=C\\C")
0.04
>>> recorded_measurement("C=C1C(=O)O[C@@H]2[C@@H]1C[C@@H](O)[C@H](C)[C@@](O)(C(=O)/C=C/C)[C@H]2OC(=O)C(C)CC (stereo not given in full)")
-0.05

====

Test system: ASK
procedure_text: Cytotoxicity against human ASK cells at 20 ug/mL
Format: functional, cell-based
The source made the active and inactive calls. The calls are words filed in the database; no cut-off is given here.
reported_endpoint: Activity

>>> recorded_measurement("C=C1C(=O)O[C@@H]2[C@@H]1C[C@@H](O)[C@H](C)[C@@](O)(C(=O)CC(C)O)[C@H]2OC(=O)C(C)CC (stereo partly drawn)")
"inactive"
>>> recorded_measurement("COc1c(O)cc2oc(-c3ccc(O)cc3)cc(=O)c2c1O")
"inactive"
>>> recorded_measurement("C=C1C(=O)O[C@@H]2[C@@H]1[C@@H](O)C[C@H](C)[C@@](O)(C(=O)/C=C/C)[C@H]2OC(=O)/C(C)=C\\C")
"inactive"

====

Tested on: ASK
procedure_text: Cytotoxicity against human ASK cells at 20 ug/mL
Type: functional, cell-based
Active and inactive are the calls of the source. The calls are words filed in the database; no cut-off is given here.
reported_endpoint: Activity

>>> recorded_measurement("C=C1C(=O)O[C@@H]2[C@@H]1[C@H]1O[C@H]1[C@H](C)[C@@](O)(C(=O)/C=C/C)[C@H]2OC(=O)/C(C)=C\\C")
"inactive"
>>> recorded_measurement("C=C1C(=O)O[C@@H]2[C@@H]1CC(=O)[C@H](C)[C@@](O)(C(=O)CC(C)OC)[C@H]2OC(=O)C(C)CC (some centres not stated)")
"inactive"
>>> recorded_measurement("C=C1C(=O)O[C@@H]2[C@@H]1C[C@@H](O)[C@H](C)[C@@](O)(C(=O)/C=C/C)[C@H]2OC(=O)C(C)CC (some centres not stated)")
"inactive"
>>> recorded_measurement("C=C1C(=O)O[C@@H]2[C@@H]1C[C@@H](O)[C@H](C)[C@@](O)(C(=O)/C=C/C)[C@H]2OC(=O)/C(C)=C\\C")
"inactive"
>>> recorded_measurement("C=C1C(=O)O[C@@H]2[C@@H]1CC(=O)[C@H](C)[C@@](O)(C(=O)/C=C/C)[C@H]2OC(=O)C(C)CC (some centres not stated)")
"inactive"
>>> recorded_measurement("C=C1C(=O)O[C@@H]2[C@@H]1CC[C@H](C)[C@@](O)(C(=O)/C=C/C)[C@H]2OC(=O)/C(C)=C\\C")
"inactive"
>>> recorded_measurement("C=C[C@@](C)(O)C[C@@H](O)/C=C(\\C)CC/C=C(\\C)COC(C)=O")
"inactive"
